Test system: PI3Kα wide type cell line SK-BR-3
Experiment: Cell Proliferation IC50 Assay (CellTiter-Glo), SK-BR-3
Type: cell-based
Settings: Homo sapiens, SK-BR-3, 72 h, read-out: IC50 (μM) SK-BR-3
MEASURED_ENDPOINT: IC50

Ask | May I ask what IC50 has been recorded for Cc1cc(C(C)Nc2ccccc2P(=O)(O)O)c2oc(-c3ccc4nn(C)cc4c3)c(C)c(=O)c2c1 (stereo not shown) ?
Reply | > 10 µM

====

System: PI3Kα H1047R mutation cell line MDA-MB-453
Assay: Cell Proliferation IC50 Assay (CellTiter-Glo), MDA-MB-453
Assay type: cell-based
Conditions: MDA-MB-453 (H1047R), 72 hours, CellTiter-Glo; read-out: IC50 (μM) MDA-MB-453
MEASURED_ENDPOINT: IC50 (µM)
Give a bare numeral; the unit µM is implied.

MOLECULE: C[C@H](Nc1ccccc1C(=O)O)c1cc(Cl)cc2c(=O)cc(-c3ccc4nn(C)cc4c3)oc12 (single isomer, unassigned) [Example 98A]
MEASURED_ENDPOINT: IC50
REPORTED: 0.09

Now for another entry.
Ask | For the molecule shown here, Cc1cc([C@@H](C)Nc2ccccc2C(=O)O)c2oc(-c3ccc4nn(C)cc4c3)c(C)c(=O)c2c1 [Example 49A] , give the reported IC50.
Reply | 0.09
